The sequences listed here are annotated with their pre-steady-state target cleavage rate.
- Test system: MILI (PIWIL2) piRISC loaded with L1MC piRNA (26 nt);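 further: 1 nM active piRISC with 0.1 nM target library at 33 °C single turnover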
- procedureText: pre-steady-state target cleavage rate (min^-1); guide: L1MC piRNA 5'p-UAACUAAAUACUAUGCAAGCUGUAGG; MIWI and MILI are mouse PIWI proteins and EfPiwi is from a freshwater sponge; tags in brackets are library labels; higher = faster piRNA-guided slicing of the target
- runParameters: auxiliary factor: 500 nM mouse GTSF1

inputSequence	pre-steady-state target cleavage rate
UCCUGCUACAGCUUGGUUAGUAUUUAGUUA	0.262
UCCUGGAUGUGUUUGCAUAGUAUUUAGUUA	0.16
UCCUCCUACAGCUUCCUUAGUAUUUAGUUA	0.216
UCCUGGAAAAGCUUGCAUAGUAUUUAGUUA	0.249
UCCUGGAUGUCGAUGCAUAGUAAUUAGUUA	0.0524
UCCUGGAUGUCCUUGCAUAGUAUUUAGCUUA	0.0698
UCCUGGUACAGCUUGCAUAGUAUUUUCAAA	0.109
UCCUGGAUGUCGAUGCAUAGUUUUUAGUAA	0.0058
UCCUGGAUGUCCAUUGCAUAGUAUUUAGUUA	0.127
UCCUGGAUGUCCUAGCAUACUAUUUAGUUA	0.0115
UCCUGGAUGAGCUUGUCAUAGUAUUUAGUUA	0.0971
UCCUGGUACAGCUUGCAUAGUAUCUUAGUUA	0.188
UCCUCCUACAGGUUGCAUAGAAUUUAGUUA	0.0405
UCCUGGAACAGCUUGCAUAGAUAUUAGUUA	0.0112
UCCUCCUACAGCUGGCAUAGUAUUUAGUUA	0.294
UCCUGGUACAGCAUGCAUAGUAUUUUGUUA	0.11
UCCUCCUACAGCUUGCAUAGUAUUUUAGUUA	0.273
UCCUCCUUGUGCUUGCAUAGUAUUUAGUUA	0.157
UCCUGGAUGAGCUUGCAUAGUAUUUGGUUA	0.203
UCCUGGAUGUCCUUGCAUAGUAUAUUGUUA	0.0329
UCCUGCUACAGCAUGCAUAGUAUUUAGAAA	0.188
UCCUGGAUCAGCUUGCAUAGUACUUAGUUA	0.237
UCCUGGUACAGCAUGCAUUGUAUUUAGUUA	0.167
UCCUGGUACGCUUGCAUAGUAUUUAGUUA	0.222
UCCUGGAUGUCCUUGCAUAGUAUUUAGUUU [g2:g19:cont:t1U]	0.17
UCCUCCUACUGCUAGCAUAGUAUUUAGUUA	0.232
UCCUGGUACAGCUUGCAUACUAUUUACUUA	0.05
UCCUGCUUGAGCUUGCAUAGUAUUUAGUUA	0.22
UCCUCCUACAGCUAGCAAAGUAUUUAGUUA	0.138
UCCUGGAACAGCUUGCAUAGUAUAAUGUUA	0.0834
UCCUGGUACAGCUUGCAUACUAUAUAGUUA	0.0326
UCCUGGAUGUCGAAGCAUAGUAUUUAGUUG [g2:g16:cont:t1G]	0.0225
UCCUGGAUGUCGAUGCAUAGUAUUUAUUUA	0.0578
UCCUGCUACAGCUUGCUUAGUAUAUAGUUA	0.206
UCCUGCUACAGCUAGCAUAGUAUUUACUUA	0.351
UCCUCCUACAGCGUGCAUAGUAUUUAGUUA	0.309
UCCUGGAACAGCUUGCAUAGUAAUUACAAA	0.0522
UCCUGGAUGUGCUUGCAUAAUAUUUAGUUA	0.158
UCCUGGAUGAGCUUGCAUAGAAUUAAGUUA	0.00512
UCCUGCUACAGCUUGCAUAGUAUUUAGGUUA	0.265
UCCUGCUACACGCUUGCAUAGUAUUUAGUUA	0.218
UCCUGGAUGUCGUUGCAUAGUAUGUUAGUUA	0.203
UCCUGGAACAGCUUGCAUACUAUUUUGUUA	0.0261
UCCUGGUACAGCUUGCAUAGUAAAUUCAAA	0.0147
UCCUGGAUGUGCUUCCUUAGUAUUUAGUUA	0.0394
UCCUGGAUGUCCUUGCUUAGUUUUUAGUUA	0.0152
UCCUGGAACAGCUUGCUAUGUAUUUAGAAA	0.00873
UCCUGGAUCAGCUUCCAUAGUUUUUAGUUA	0.0089
UCCUGGUACUGCUUGCAUAGUAUUUAGUAA	0.0986
UCCUGGUAGUGCUUGCAUAGUAUUUAGUAA	0.191
UCCUGGUACAGCUUGGUUAGUAUUUAGUUA	0.192
UCCUGGAACAGCUUGCAUAGUAUUUAGCUUA	0.195
UCCUGGAUGAGGUUGCAUAGUAAUUAGUUA	0.117
UCCUGCUACACCUUGCAUAGUAUAUAGUUA	0.18
